Test system: RPMI-8226 leukemia
Test: NCI tumour cell line growth inhibition, 48 h
measured parameter: TGI

# count of solved cases: 3
COc1cc2c(c3oc4c(O)cccc4c(=O)c13)CC(C(C)(O)CO)O2 (stereo not given); > 100 µM
Nc1nc(Cl)cc(NCC2(CO)CC(=O)C2)n1; > 100 µM
COc1cccc(C2c3cc4c(cc3OC(C)(N3CCCC3)C2C)OCO4)c1O (stereo not given); 36.5 µM

Field: TGI. Fill in for each record below.
1. COc1ccc(-c2cc(O)c3nc4ccccc4n3c2)cc1
2. CC1CCC(n2c3cnccc3c3cnc(Nc4ccc5c(n4)CCN(C(=O)CO)C5)nc32)CC1 (stereo not given)

1: > 100 µM; 2: > 100 µM

Where do the numbers come from? From PubChem BioAssay (NCI).
